- EXPERIMENTAL_SYSTEM: h-NK1 receptors (Homo sapiens)
- Construct: expressed in transfected cells; host or cells: CHO cells (permanent expression), crude cell membranes
- Sequence (P25103 whole entry): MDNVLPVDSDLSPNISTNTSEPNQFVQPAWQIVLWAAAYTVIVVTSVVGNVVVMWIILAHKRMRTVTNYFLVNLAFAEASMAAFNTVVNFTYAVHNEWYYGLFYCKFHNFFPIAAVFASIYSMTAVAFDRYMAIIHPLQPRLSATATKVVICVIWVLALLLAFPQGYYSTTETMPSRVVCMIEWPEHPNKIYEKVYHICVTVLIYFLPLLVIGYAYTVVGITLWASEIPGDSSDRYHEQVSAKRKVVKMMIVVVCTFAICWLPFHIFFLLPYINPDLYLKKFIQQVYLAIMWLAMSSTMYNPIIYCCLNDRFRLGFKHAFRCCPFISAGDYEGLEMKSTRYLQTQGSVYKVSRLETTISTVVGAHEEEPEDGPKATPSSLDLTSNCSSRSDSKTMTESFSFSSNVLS
- EXPERIMENT_SUMMARY: Evaluation of NK1 antagonist transport efficiency to the central nervous system using a h-NK1 receptor binding assay
- ASSAY_SETUP: 5 min, brain extract of male SD rats 5 min after i.v. injection of test compound, CHO cell membranes expressing h-NK1, read-out: inhibition rate of 125I-BH-Substance P binding to h-NK1 receptors
Where a name gives a salt, the structure may show the parent alone.
READOUT_NAME: inhibition at 1 mg/kg

These recorded examples may help you get a feel for the data.
O=C(c1cc(C(F)(F)F)cc(C(F)(F)F)c1)N1CCN(C/C=C/CNCc2cccnc2)C[C@H]1Cc1ccc2ccccc2c1 [82-(10), trihydrochloride] ... > 80%
O=C(c1cc(C(F)(F)F)cc(C(F)(F)F)c1)N1CCN(CCCCCN2CCOCC2)C[C@H]1Cc1c[nH]c2ccccc12 [Example 55, dihydrochloride] ... > 80%

Prompt: # value lookup — system h-NK1 receptors (Homo sapiens), readout inhibition at 1 mg/kg, item O=C(c1cc(C(F)(F)F)cc(C(F)(F)F)c1)N1CCN(CCCNN2CCOCC2)C[C@H]1Cc1ccc2ccccc2c1 [82-(9), dihydrochloride]
Completion: > 80%

---

Overview of recorded melting point for various molecules

Cc1ccc(C[C@@H]2CN(C/C=C/CN3CCSCC3)CCN2C(=O)c2cc(C(F)(F)F)cc(C(F)(F)F)c2)cc1C.Cl.Cl ... > 230 °C
Cc1ccc(C[C@@H]2CN(CCCc3cnn(C)c3)CCN2C(=O)c2cc(C(F)(F)F)cc(C(F)(F)F)c2)cc1C.Cl ... 163 to 165 °C
Cl.Cl.O=C(c1cc(C(F)(F)F)cc(C(F)(F)F)c1)N1CCN(CC#CCN2CCSCC2)C[C@H]1Cc1cccc2ccccc12 ... 191 °C (dec.)
CC1(C)COCCN1CC=CCN1CCN(C(=O)c2cc(C(F)(F)F)cc(C(F)(F)F)c2)[C@H](Cc2c[nH]c3ccccc23)C1.Cl.Cl ... 210 °C (dec.)
O=C(c1cc(C(F)(F)F)cc(C(F)(F)F)c1)N1CCN(CCCC2(c3ccc(F)cc3)OCCO2)C[C@H]1Cc1c[nH]c2ccccc12 ... 145 to 146 °C

Prompt: Tell me the measured melting point of Cc1ccc(C[C@@H]2CN(CC#CCN3CCSCC3)CCN2C(=O)c2cc(C(F)(F)F)cc(C(F)(F)F)c2)cc1C.Cl.Cl , please.
Completion: 162 to 170 °C

Prompt: Input Cc1ccc(C[C@@H]2CN(CCN3CCSCC3)CCN2C(=O)c2cc(C(F)(F)F)cc(C(F)(F)F)c2)cc1C.Cl.Cl
Completion: 261.5 °C

Prompt: Input Cl.Cl.O=C(c1cc(C(F)(F)F)cc(C(F)(F)F)c1)N1CCN(CCCN2CC=CCC2)C[C@H]1Cc1c[nH]c2ccccc12
Completion: > 200 °C

Prompt: Input Cc1ccc(C[C@@H]2CN(CCCCCN3CCOCC3)CCN2C(=O)c2cc(C(F)(F)F)cc(C(F)(F)F)c2)cc1C.Cl.Cl
Completion: 235 to 238 °C

Prompt: Input Cc1ccc(C[C@@H]2CN(C/C=C\CN3CCOCC3)CCN2C(=O)c2cc(C(F)(F)F)cc(C(F)(F)F)c2)cc1C.Cl.Cl
Completion: 243 to 246 °C
